# chromatographic logP listing for each entry below
- assay details: logP determination by HPLC (EEC Directive 79/831 Annex V.A8)
- Assay type: physicochemical
Write no unit; give the number alone.

- molecule: "CNC(=O)C(=NOCF)c1ccccc1COc1ccn(-c2ccc(Cl)cc2)n1 [Example 2]"
  chromatographic logP: 3.3

# next molecule below
Item under review: COC(=O)C(=NOCF)c1ccccc1COc1ccn(-c2ccc(Cl)cc2)n1 [Example 1] . Reported chromatographic logP?
3.86

----------
- assay details: logP determination by HPLC (EEC Directive 79/831 Annex V.A8)
- Format: physicochemical
- experimental conditions: HPLC, gradient method, acetonitrile/0.1% aqueous phosphoric acid
value type: logP

- chem smiles: "CNC(=O)C(=NOCF)c1ccccc1OCc1ccn(-c2ccc(F)cc2F)n1"
  logP: 3.02

# logP lookup, item CNC(=O)C(=NOCF)c1ccccc1OCc1ccn(-c2ccc(C(C)(C)C)cc2)n1
4.04

Consider the molecule shown here: CNC(=O)C(=NOCF)c1ccccc1OCc1ccn(-c2ccc(C#N)cc2)n1 What is its recorded logP?
2.64

Given the molecule COC(=O)C(=NOCF)c1ccccc1OCc1ccn(-c2ccc(C)c(C)c2)n1 , what is its reported logP?
3.92

Can you look up the measured logP of CNC(=O)C(=NOCF)c1ccccc1OCc1ccn(-c2cccc(Cl)c2)n1 for me?
3.3

Dear colleague, I am looking for the recorded logP of the following molecule: COC(=O)C(=NOCF)c1ccccc1OCc1ccn(-c2ccc(F)cc2)n1
3.47

Any idea what its logP is? The molecule is COC(=O)C(=NOCF)c1ccccc1OCc1ccn(-c2ccccc2F)n1
3.51

Give the measured logP of COC(=O)C(=NOCF)c1ccccc1OCc1ccn(-c2ccc(C)cc2)n1 .
3.74

I'd like to know its logP. The molecule in question is CNC(=O)C(=NOCF)c1ccccc1OCc1ccn(-c2cc(Cl)cc(Cl)c2)n1
3.93

Please look up its logP: COC(=O)C(=NOCF)c1ccccc1OCc1ccn(-c2cccc(Cl)c2Cl)n1
3.9

Reported logP for CNC(=O)C(=NOCF)c1ccccc1OCc1ccn(-c2ccc(Cl)cc2Cl)n1 : what is it?
3.5

Look at this molecule and give its reported logP. COC(=O)C(=NOCF)c1ccccc1OCc1ccn(-c2ccc(C(C)C)cc2)n1
4.38

Any idea what logP was measured for COC(=O)C(=NOCF)c1ccccc1OCc1ccn(-c2cc(Cl)cc(Cl)c2)n1 ?
4.52

Please look up its logP: COC(=O)C(=NOCF)c1ccccc1OCc1ccn(-c2ccc(Br)cc2)n1
3.98

Bench note: what logP did COC(=O)C(=NOCF)c1ccccc1OCc1ccn(-c2cccc(C)c2)n1 show?
3.73

State the recorded logP for this entry: CNC(=O)C(=NOCF)c1ccccc1OCc1ccn(-c2ccc(C)cc2)n1
3.14

logP for CNC(=O)C(=NOCF)c1ccccc1OCc1ccn(-c2ccc(C(C)C)cc2)n1 ?
3.83

Param item = CNC(=O)C(=NOCF)c1ccccc1OCc1ccn(-c2cccc(Cl)c2Cl)n1 ; retrieve measured logP.
3.31

----------
- assay details: logP determination by HPLC (EEC Directive 79/831 Annex V.A8)
- Assay type: physicochemical
- experimental conditions: HPLC, gradient method, acetonitrile/0.1% aqueous phosphoric acid
value type: logP
No unit in the answer, only the number.

Example entries and their recorded answers appear below.
- chem smiles: "CNC(=O)C(=NOCF)c1ccccc1OCc1ccn(-c2cccc(Br)c2)n1"
  logP: 3.39
- chem smiles: "COC(=O)C(=NOCF)c1ccccc1OCc1ccn(-c2ccc(F)cc2F)n1"
  logP: 3.52
- chem smiles: "CNC(=O)C(=NOCF)c1ccccc1OCc1ccn(-c2ccc(Br)cc2)n1"
  logP: 3.4
- chem smiles: "COC(=O)C(=NOCF)c1ccccc1OCc1ccn(-c2ccccc2)n1"
  logP: 3.4

What does the data say about its logP? Entry: CNC(=O)C(=NOCF)c1ccccc1OCc1ccn(-c2ccccc2Cl)n1
2.96

----------
- assay details: logP determination by HPLC (EEC Directive 79/831 Annex V.A8)
- Type: physicochemical
- experimental conditions: HPLC, gradient method, acetonitrile/0.1% aqueous phosphoric acid
Entries and their logP

# count of solved cases: 4
- chem smiles: "COC(=O)C(=NOCF)c1ccccc1OCc1ccn(-c2cccc(Cl)c2)n1"
  reported value: 3.88
- chem smiles: "CNC(=O)C(=NOCF)c1ccccc1OCc1ccn(-c2cccc(C)c2)n1"
  reported value: 3.15
- chem smiles: "COC(=O)C(=NOCF)c1ccccc1OCc1ccn(-c2ccccc2Br)n1"
  reported value: 3.54
- chem smiles: "CNC(=O)C(=NOCF)c1ccccc1OCc1ccn(-c2ccc(F)cc2)n1"
  reported value: 2.91

# logP lookup, item CNC(=O)C(=NOCF)c1ccccc1OCc1ccn(-c2cc(Cl)ccc2Cl)n1
3.43

----------
Measured logP values are reported for all entries that follow.
- assay details: logP determination by HPLC (EEC Directive 79/831 Annex V.A8)
- Format: physicochemical
- experimental conditions: HPLC, gradient method, acetonitrile/0.1% aqueous phosphoric acid
When you answer, write just the number.

- chem smiles: "CNC(=O)C(=NOCF)c1ccccc1OCc1ccn(-c2ccccc2)n1"
  logP: 2.83
- chem smiles: "COC(=O)C(=NOCF)c1ccccc1OCc1ccn(-c2ccc(C#N)cc2)n1"
  logP: 3.18
- chem smiles: "COC(=O)C(=NOCF)c1ccccc1OCc1ccn(-c2cc(Cl)ccc2Cl)n1"
  logP: 4.5
- chem smiles: "CNC(=O)C(=NOCF)c1ccccc1OCc1ccn(-c2ccccc2F)n1"
  logP: 2.93
- chem smiles: "COC(=O)C(=NOCF)c1ccccc1OCc1ccn(-c2cccc(Br)c2)n1"
  logP: 3.98
- chem smiles: "COC(=O)C(=NOCF)c1ccccc1OCc1ccn(-c2ccc(Cl)cc2Cl)n1"
  logP: 4.09
- chem smiles: "COC(=O)C(=NOCF)c1ccccc1OCc1ccn(-c2ccc(C(C)(C)C)cc2)n1"
  logP: 4.63

Next item in the queue.
Endpoint output: logP of COC(=O)C(=NOCF)c1ccccc1OCc1ccn(-c2ccccc2Cl)n1 . Value?
3.53
